// reported normalized growth per item
Test: chemical genetic growth profiling, strain panel (AID 1159580);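 note: tested at 20 µM; growth read once vehicle control cultures reached saturation at 30 °C; 1 = growth at the plate median or of vehicle wells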
Conditions: S. cerevisiae deletion strains, growth OD, locus YEL061C, strain CIN8 (second series), stronger effect = lower value
Screen size: about 5,500 compounds; about 2,000 (36%) were called active. Another 18% or so got no clear call; they are omitted. The list shows a part of the results.
Number only, please.

Compound	normalized growth
C[C@]12CCC3C(CC[C@H]4CC(=O)CC[C@]34C)C1CCC2=O (some centres not stated)	1.01
C[N+]1(C)CCc2cc3c(cc2[C@H]1C1OC(=O)c2c1ccc1c2OCO1)OCO3 (some centres not stated)	0.99
CC(C)CCCC(C)[C@H]1CCC2C3CC[C@H]4CC(=O)CC[C@]4(C)C3CC[C@@]21C (some centres not stated)	0.98
Fc1ccc(C(c2ccc(F)cc2)N2CCN(C/C=C/c3ccccc3)CC2)cc1	0.229
CC(=O)OCC(=O)[C@@]1(O)CCC2C3CCC4=CC(=O)CC[C@]4(C)[C@@]3(F)[C@@H](O)C[C@@]21C (some centres not stated)	1.01

Q: What value of measured normalized growth is listed for COC(=O)C1=CO[C@@H](O[C@@H]2O[C@H](CO)[C@@H](O)[C@H](O)[C@H]2O)[C@@H]2[C@@H](C)[C@@H](O)C[C@H]12 ?
Ans: 1

Q: Entry COc1ccc2c(c1)[nH]c1c(C)nccc12 has what normalized growth?
Ans: 0.99

* * *

Measured normalized growth accompanies every entry in the list below.
Test: chemical genetic growth profiling, strain panel (AID 1159580)
Conditions: S. cerevisiae deletion strains, growth OD, locus YOR119C, strain RIO1, stronger effect = lower value
Out of some 5,500 compounds screened, about 2,000 (36%) were called active. Not shown: some 18% with an inconclusive outcome. This is one part of the list.

Q: # query: normalized growth of entry O=C(Nc1ccc(Cl)cc1)c1csc([N+](=O)[O-])c1
Ans: 0.86 (inactive)

Q: Please look up its normalized growth: CCCCCc1ccc(-c2nc(SCC(C)=O)n[nH]2)cc1
Ans: 0.779 (inactive)

Q: Entry COc1cc(OC)cc(/C(N)=N\O)c1 : reported normalized growth = ?
Ans: 0.983 (inactive)

Q: Fill in: normalized growth of Cc1c(C(=O)NCCNc2ccc(C(F)(F)F)cc2[N+](=O)[O-])cnn1-c1ccc(F)cc1 is ___
Ans: 1.01 (inactive)

Q: Fill in the blank: the reported normalized growth of FC(F)(F)c1ccc(C2Sc3ccccc3N=C3c4ccccc4CC32)cc1 (stereo not drawn) is ____.
Ans: 1.02 (inactive)

Q: Sample Cc1nn(Cc2cccc(C(=O)O/N=C(/N)c3ccc(Cl)cc3)c2)c(C)c1Br — what was its normalized growth?
Ans: 1.01 (inactive)

Q: Request the reported normalized growth associated with O=C(NNc1c(Cl)cccc1Cl)c1ccc([N+](=O)[O-])o1
Ans: 0.917 (inactive)

Q: Please report the recorded normalized growth for N#C/C(=N/Nc1ccc(Cl)cc1)C(N)=S .
Ans: 0.225 (active)

Q: Please report the recorded normalized growth for O=C(Nc1ccc(OC(F)(F)F)cc1)Nc1cncc(C(F)(F)F)c1 .
Ans: 0.995 (inactive)

Q: What does the record list as normalized growth for Cc1c(NCN2C(=O)CCC2=O)cc2c(c1[N+](=O)[O-])C(C)(C)CC2(C)C ?
Ans: 0.951 (inactive)

Q: Return reported normalized growth; argument: N#C/C(=C\c1ccc(C(F)(F)F)cc1)c1ccc(O)cc1
Ans: 0.498 (active)

Q: Which normalized growth is reported for this compound? CSc1nc(Sc2n[nH]c(-c3ccccc3)n2)cc(Sc2n[nH]c(-c3ccccc3)n2)n1
Ans: 1.05 (inactive)

Q: What does the data say about its normalized growth? Entry: COc1ccc(/C(C#N)=C2C=C/C(=N/O)C(Cl)=C\2)cc1
Ans: 0.87 (inactive)

Q: So what's the measured normalized growth for this one? N#CC(C#N)=NNc1ccc(-n2ccc(C(F)(F)F)n2)cc1
Ans: 0.419 (active)

Q: Using the record for O=C(O)c1cccc2cccc(C(=O)O)c12 , report its normalized growth.
Ans: 0.104 (active)

Q: GET /values?readout=normalized growth&item= Fc1ccc(Nc2nc(-c3ccc(F)c(F)c3)cs2)c(F)c1
Ans: 0.107 (active)

Q: Endpoint output: normalized growth of CCOC(=O)C(NC(C)=O)(Nc1ccc(F)c(Cl)c1)C(F)(F)F (stereo not drawn) . Value?
Ans: 1 (inactive)

Q: I have this compound here, N#C/C(=N/Nc1ccc(Cl)cc1)C(=O)C1CC1 , and I need its recorded normalized growth.
Ans: 0.667 (active)

Q: Need normalized growth of CSC(SC)=C(C#N)C(=O)c1ccccc1Cl , thanks.
Ans: 0.125 (active)

Q: Which normalized growth value is on record for Nc1ccccc1C(=O)N/N=C\c1cc(Cl)cc(Cl)c1O ?
Ans: 0.696 (active)

Q: Entry CCOC(=O)C(O)(c1ccc(NC(=O)Nc2ccc(Cl)cc2)cc1)C(F)(F)F (stereo not drawn) : reported normalized growth = ?
Ans: 1.08 (inactive)

Q: Which normalized growth is reported for this compound? N#CC(C#N)=NNc1cc(C(F)(F)F)ccc1OCC(F)(F)F
Ans: 0.45 (active)

Q: Looking for the measured normalized growth of COC(=O)c1ccc(Oc2c(C(F)(F)F)oc3cc(O)ccc3c2=O)cc1 , can you help?
Ans: 1.02 (inactive)

* * *

Experiment: chemical genetic growth profiling, strain panel (AID 1159580);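 note: tested at 20 µM; growth read once vehicle control cultures reached saturation at 30 °C; 1 = growth at the plate median or of vehicle wells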
Settings: S. cerevisiae deletion strains, growth OD, locus YER016W, strain bim1
Among all 5,500 compounds or so, about 2,000 (36%) were called active. Not shown: some 18% with an inconclusive outcome. Cut-off read from the data, not from the text of the source: active = normalized growth mostly below about 0.91 (no sharp cut-off); inconclusive = no clear call, values can overlap the other calls; inactive = mostly above about 0.92. This is one part of the list.
Respond with a class label; see Yes (active), No (inactive)

Molecule	Group label
O=C1c2ccccc2C(=O)c2c1ccc(O)c2O	Yes

Q: So what was the verdict on CCNc1nc(Cl)nc(NC(C)C)n1 in this test?
Ans: No

Q: Please share the test call associated with CC(C)=CCC1=C(O)c2ccccc2C(=O)C1=O .
Ans: Yes

Q: Any idea what this test logged for Cc1ncc([N+](=O)[O-])n1CCO ?
Ans: No

Q: Would you mind telling me which call this test gave CNC(=O)CSP(=S)(OC)OC ?
Ans: No

Q: Check the results log: what was the call for O=c1ccc2ccc(O)c(O)c2o1 ?
Ans: No

Q: For COc1cc(OC)c2c(c1Cl)OC1(C2=O)C(O)=CC(=O)CC1C (centres undefined) , what call appears in the results of this test?
Ans: No

* * *

Experiment: chemical genetic growth profiling, strain panel (AID 1159580);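 note: tested at 20 µM; growth read once vehicle control cultures reached saturation at 30 °C; 1 = growth at the plate median or of vehicle wells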
Conditions: S. cerevisiae deletion strains, growth OD, locus YFR028C, strain CDC14, stronger effect = lower value
About 2,000 (36%) of roughly 5,500 compounds were called active. About 18% were inconclusive and are not listed. This is one part of the list.
Below, each entry is listed alongside its reported normalized growth.

Compound	Reading
CC(C)(C)c1cc(C(=O)/C(C#N)=N\Nc2ccc(Cl)cc2)no1	0.958 (inactive)
CC(/C=C/c1ccccc1)=N/OC(=O)c1ccccc1Cl	0.969 (inactive)

# next compound below
Q: What value of normalized growth has been reported for the following compound? CCCCCc1ccc(-c2nc(SCC(C)=O)n[nH]2)cc1
Ans: 0.962 (inactive)

* * *

Test: chemical genetic growth profiling, strain panel (AID 1159580);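 note: tested at 20 µM; growth read once vehicle control cultures reached saturation at 30 °C; 1 = growth at the plate median or of vehicle wells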
Details: S. cerevisiae deletion strains, growth OD, locus YPR141C, strain kar3
In all, about 5,500 compounds went through this assay and about 2,000 (36%) were called active. Roughly 18% stayed inconclusive and do not appear here. No stated cut-off is given here; in the data, active means normalized growth mostly below about 0.91 (no sharp cut-off); inconclusive means no clear call, values can overlap the other calls; inactive means mostly above about 0.92. This is one part of the list.
In this exercise, the only acceptable responses are active, inactive

Example cases with answers are listed next.
Molecule	Group label
CC1(C)S[C@@H]2[C@H](NC(=O)COc3ccccc3)C(=O)N2[C@H]1C(=O)O	inactive
COc1cc(OC)c2c(c1Cl)OC1(C2=O)C(O)=CC(=O)CC1C (centres undefined)	inactive
O=c1c(-c2ccc3c(c2)OCO3)coc2cc(O)ccc12	inactive
COc1ccc2c(=O)c(-c3cc4c(cc3OC)OCO4)coc2c1	inactive
COc1cc(O)c(C)c(O)c1	inactive
COc1cc2ccc(=O)oc2c2ccoc12	inactive

Q: Status in this test for CCC(=O)O[C@H]1CCC2C3CCc4cc(O)ccc4C3CC[C@@]21C (some centres undefined) ?
Ans: inactive

Q: Recorded test call requested for O=c1cc(-c2ccc(O)cc2)oc2cc(O[C@@H]3O[C@H](CO)[C@@H](O)[C@H](O)[C@H]3O[C@@H]3OC[C@](O)(CO)[C@H]3O)cc(O)c12
Ans: inactive

Q: Could you kindly confirm the outcome this assay logged for CC(=O)O[C@@H]1CC2C(C)(C)C(=O)[C@@H]3O[C@@H]3[C@]2(C)C2CC[C@]3(C)C(=CC(=O)O[C@H]3c3ccoc3)[C@@]21C (some centres undefined) ?
Ans: inactive

Q: Would you mind telling me which call this test gave CCCCCN=C(N)N/N=C\c1c[nH]c2ccc(OC)cc12 ?
Ans: inactive

Q: Query: recorded result category for NCCS in this test
Ans: inactive

Q: Entry CCCCC(=O)N(Cc1ccc(-c2ccccc2-c2nn[nH]n2)cc1)[C@H](C(=O)O)C(C)C : call = ?
Ans: inactive

Q: # fetch the recorded call for COc1c2c(cc3occ(-c4ccc5c(c4)OCO5)c(=O)c13)OC(C)(C)C=C2 here
Ans: inactive
